experimental details: Beagle dog PK study 2 of Example 101 (HPβCD based formulation, IV), with clinical observations
Format: in vivo
test parameters: beagle, dog, plasma, iv, 1 mg/kg, dog PK study 2, IV 1 mg/kg, HPβCD, 0.25 h, Test Animal 1; read-out: Plasma concentration
assay readout: concentration at 0.25 h
Write down the value, and be sure its unit follows.

Bench note: what concentration at 0.25 h did CNC(=O)c1[nH]c(C(=O)NC2CCC2)cc1O[C@@H](C)c1ccccc1 (stereo in doubt) show?
721 ng/mL

---

experimental details: Pharmacokinetics and plasma concentration of Example 101 in Lewis rats after oral administration (CIA study)
Format: in vivo, Lewis rat
test parameters: Lewis, rat, plasma, po, 10 mg/kg, oral, day 0, 10 mg/kg, Mean; read-out: Tmax
assay readout: Tmax (h)
A number alone suffices; assume h.

Quick one: Tmax of CNC(=O)c1[nH]c(C(=O)NC2CCC2)cc1O[C@@H](C)c1ccccc1 (stereo in doubt) [Example 101] ?
7.3
